- test description: Single subcutaneous dose pharmacokinetics in irradiated and unirradiated mice
- Assay type: in vivo, C57BL/6 mice
- stated conditions: female, C57BL/6, mouse, plasma, sc, 1 mg/kg, IR females; single SC dose 1 mg/kg; read-out: AUC

mol smiles	AUC [ng·h/mL]
CCCCCCCC/C=C\CCCCCCCCOP(O)(O)=S	1240

----------
- test description: Single subcutaneous dose pharmacokinetics in irradiated and unirradiated mice
- Assay type: in vivo, C57BL/6 mice
- stated conditions: both sexes, C57BL/6, mouse, plasma, sc, 1 mg/kg, single SC dose 1 mg/kg; healthy mice; whole group (not split by gender); read-out: AUCINF_obs
property: AUC(0-inf) (µg·h/mL)

molecule	measured
CCCCCCCC/C=C\CCCCCCCCOP(O)(O)=S [Rx100.L-Lysine]	1.66

----------
- target desc: Human LPA3 (Homo sapiens)
- Construct: expressed in transfected cells; host or cells: mouse embryonic fibroblasts (MEF) or rat hepatoma RH7777
- Sequence (Q9UBY5 1-353): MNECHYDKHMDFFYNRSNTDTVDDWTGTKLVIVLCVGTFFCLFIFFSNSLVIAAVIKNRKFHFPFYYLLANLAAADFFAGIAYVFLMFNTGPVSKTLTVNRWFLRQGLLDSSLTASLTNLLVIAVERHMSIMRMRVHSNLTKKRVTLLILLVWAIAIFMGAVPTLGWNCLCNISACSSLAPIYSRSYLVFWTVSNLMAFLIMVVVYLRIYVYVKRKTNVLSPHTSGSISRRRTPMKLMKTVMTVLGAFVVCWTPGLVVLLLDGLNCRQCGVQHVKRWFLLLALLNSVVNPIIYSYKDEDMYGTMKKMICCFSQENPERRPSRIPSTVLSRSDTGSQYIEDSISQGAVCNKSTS
- test description: Calcium-mobilization assay (FURA-2), human LPA3 transfected cells
- Assay type: cell-based
- stated conditions: LPA3 RH7777, human; mean; read-out: EC50

compound	EC50 [µM]
CCCCCCCC/C=C\CCCCCCCCOP(=O)(O)O [Rx200, oleyl phosphate]	0.747

----------
- test description: 28-day repeat-dose subcutaneous toxicity and toxicokinetics in rats
- Format: in vivo, Sprague Dawley rats
- stated conditions: Sprague Dawley, rat, plasma, subcutaneous; day 27; lowest dose of 1.81 mg/kg/day
property: AUC at 27 day (ng·h/mL)

mol smiles	measured
CCCCCCCC/C=C\CCCCCCCCOP(O)(O)=S	5040

----------
- test description: Subcutaneous and intravenous pharmacokinetics in healthy and irradiated Rhesus Macaques
- Assay type: in vivo
- stated conditions: male, rhesus monkey, plasma, sc, 1 mg/kg, SC post IR

mol smiles	units text	Cmax
CCCCCCCC/C=C\CCCCCCCCOP(O)(O)=S	ng/mL	3110

----------
- test description: Solubility measurement by gravimetric method in various solvents
- Format: physicochemical
- stated conditions: aqueous with cosolvent or surfactant or cyclodextrin, thermodynamic from solid; MeOH:water (v/v) [3:7]; 50° C.
property: solubility

mol smiles	measured
CCCCCCCC/C=C\CCCCCCCCOP(O)(O)=S	> 86 mg/mL

Every entry's value here was drawn from patent US20170226139A1.
